TARGET_OR_SYSTEM: T1, human GPC3-His protein (human, UniProt P51654 25-559)
T1 construct: Bought protein; also called human GPC3 protein; not shown: His tag
MEASUREMENT_DESCRIPTION: ELISA, coated human GPC3, antibody 100 nM;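 also: antibodies bound to antigen-coated 96-well plates (1 µg/mL), 2 h at 37 °C, detected with HRP-labelled secondary antibody and TMB substrate, absorbance read at 450 nm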
ASSAY_METRIC: OD450 nm (OD450)
Report only the number, with the unit OD450 understood.

Recorded results for 2 binders are shown here.
BINDER	OD450 nm [OD450]
F1.136.7 human-murine chimeric antibody (antibody, human IgG1, kappa, V domains shown) VH: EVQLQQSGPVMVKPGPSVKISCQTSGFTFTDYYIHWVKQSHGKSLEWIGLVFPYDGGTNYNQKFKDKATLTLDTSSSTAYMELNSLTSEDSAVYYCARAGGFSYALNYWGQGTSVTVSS VL: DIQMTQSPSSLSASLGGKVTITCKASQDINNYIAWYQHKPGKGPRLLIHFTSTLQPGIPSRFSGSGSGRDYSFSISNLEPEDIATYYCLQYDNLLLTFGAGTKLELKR	1.19
F1.118.4 human-murine chimeric antibody (antibody, human IgG1, kappa, V domains shown) VH: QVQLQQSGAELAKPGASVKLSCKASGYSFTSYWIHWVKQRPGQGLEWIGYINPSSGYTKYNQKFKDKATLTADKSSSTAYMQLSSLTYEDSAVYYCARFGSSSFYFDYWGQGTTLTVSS VL: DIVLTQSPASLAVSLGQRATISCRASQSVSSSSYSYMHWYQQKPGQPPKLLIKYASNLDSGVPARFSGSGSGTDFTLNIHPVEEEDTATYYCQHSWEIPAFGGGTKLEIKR	1.53

From here, focus on the item given below.
Req: Report measured OD450 nm; entry is F2.55.11 human-murine chimeric antibody (antibody, human IgG1, kappa, V domains shown) VH: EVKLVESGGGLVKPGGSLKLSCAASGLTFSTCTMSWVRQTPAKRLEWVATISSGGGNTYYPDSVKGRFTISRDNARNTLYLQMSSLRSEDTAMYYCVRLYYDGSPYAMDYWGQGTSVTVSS VL: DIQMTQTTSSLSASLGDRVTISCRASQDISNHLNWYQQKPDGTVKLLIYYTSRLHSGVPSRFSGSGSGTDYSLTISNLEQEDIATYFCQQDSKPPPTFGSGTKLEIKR
Resp: 2.58

FYI, the data here is from patent US20260116991A1.
